target: canine 5-HT2A receptor (Canis lupus familiaris); assay: Saturation binding of [^3H]5-HT to membranes of COS-7 cells transfected with canine 5-HT2A receptor
Sequence (O46635 whole entry): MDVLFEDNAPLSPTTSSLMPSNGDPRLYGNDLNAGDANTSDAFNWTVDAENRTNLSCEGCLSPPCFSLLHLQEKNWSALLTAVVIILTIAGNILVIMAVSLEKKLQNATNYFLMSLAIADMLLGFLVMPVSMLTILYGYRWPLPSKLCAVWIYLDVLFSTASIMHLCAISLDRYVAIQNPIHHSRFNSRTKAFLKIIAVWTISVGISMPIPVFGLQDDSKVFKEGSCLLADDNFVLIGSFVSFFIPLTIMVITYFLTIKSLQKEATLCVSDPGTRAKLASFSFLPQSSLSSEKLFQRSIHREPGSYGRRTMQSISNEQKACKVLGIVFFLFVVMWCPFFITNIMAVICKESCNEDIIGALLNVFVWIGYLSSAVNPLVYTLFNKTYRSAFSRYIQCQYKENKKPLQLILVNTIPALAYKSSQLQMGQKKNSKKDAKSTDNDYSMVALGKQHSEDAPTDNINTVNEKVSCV
Metric name: Kd
A complete answer gives the number and then names the unit.

(Q) Please look up its Kd: NCCc1c[nH]c2ccc(O)cc12 [[^3H]-5-HT]
(A) 3 nM

====

molecular target: canine 5-HT2B receptor (Canis lupus familiaris, UniProt Q50DZ8); assay: biochemical; format: binding; set-up: Apparent equilibrium dissociation constant KD; other: canine 5-HT2B, COS-7 membranes, mean ± S.E.M. (n = 3 to 6); other: COS-7 membranes; head prints [^3H]-ketanserin; mean ± S.E.M of 3-8 experiments; KD of radioligand; other: canine 5-HT2B, transfected COS-7 membranes; other: HEK-293, Ca^2+ FLIPR, mean ± S.E.M of 3 to 6 experime
Metric name: pKi
One number for each entry, as −log10 of the molar value.

Some solved cases for reference:
{"Molecule": "Clc1cccc(N2CCNCC2)c1 [m-CPP, 1-(3-chlorophenyl)piperazine]", "Metric name": "pKi", "Quantitative result": 7.68}
{"Molecule": "COc1cc(CC(C)N)c(OC)cc1I (stereo not drawn) [DOI]", "Metric name": "pKi", "Quantitative result": 7.88}
{"Molecule": "O=C(c1ccc(F)cc1)C1CCN(CCn2c(=O)[nH]c3ccccc3c2=O)CC1 [Ketanserin, ketanserin]", "Metric name": "pKi", "Quantitative result": 6.20}

Please go through the list and note pKi for each molecule.
1. COC(=O)[C@@H]1[C@H]2C[C@H]3c4[nH]c5ccccc5c4CCN3C[C@@H]2CC[C@@H]1O [Yohimbine, yohimbine]
2. NCCc1c[nH]c2ccc(C(N)=O)cc12 [5-CT, 5-carboxyamidotryptamine]
3. FC(F)(F)c1cccc(N2CCNCC2)c1 [TFMPP, N-(3-trifluoromethyl-henyl)piperazine]
4. CC(N)Cc1c[nH]c2ccc(OCc3cccs3)cc12 (stereo not drawn) [BW-723C86]
5. Cc1nc2sccn2c(=O)c1CCN1CCC(=C(c2ccc(F)cc2)c2ccc(F)cc2)CC1 [Ritanserin, ritanserin]
6. COc1ccc2[nH]cc(C3=CCNCC3)c2c1 [RU-24969]

(A)
1: 7.09; 2: 7.13; 3: 7.38; 4: 7.58; 5: 8.40; 6: 7.89
